# Target Desc: PTRGER4 (EP4) (Homo sapiens (Human), UniProt P35408)
# Sequence (P35408 whole entry, looked up): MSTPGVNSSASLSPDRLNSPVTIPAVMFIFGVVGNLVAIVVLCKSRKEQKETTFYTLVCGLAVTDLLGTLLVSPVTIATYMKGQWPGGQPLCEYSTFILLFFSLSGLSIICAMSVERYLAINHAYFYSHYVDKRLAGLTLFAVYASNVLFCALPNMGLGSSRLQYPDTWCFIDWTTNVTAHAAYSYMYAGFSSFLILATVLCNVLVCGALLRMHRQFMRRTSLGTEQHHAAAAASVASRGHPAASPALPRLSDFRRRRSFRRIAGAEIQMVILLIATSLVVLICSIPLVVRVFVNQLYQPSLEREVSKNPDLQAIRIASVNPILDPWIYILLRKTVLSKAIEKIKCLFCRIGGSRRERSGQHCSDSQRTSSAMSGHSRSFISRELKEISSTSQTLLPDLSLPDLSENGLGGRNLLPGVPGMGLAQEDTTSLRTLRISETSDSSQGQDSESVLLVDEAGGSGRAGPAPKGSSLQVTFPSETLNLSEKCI
# Protocol Text: hEP4 b-arrestin assay (PathHunter HEK 293 PTGER4 b-arrestin cells)
# Type: cell-based
# Details: antagonistic activity on hEP4; mean where measured multiple times
Quick rule for you: IC50 under 400 nM gets met, anything else gets not met.

Take the compound CCOc1cc(-c2cc(NCCn3c(C)cc4c(C)cccc43)ncn2)ccc1C(=O)O and say whether its IC50 is less than 400 nM.
not met

Take the compound CCOc1cc(-c2cc(NCCn3c(C)cc4cc(Cl)cc(F)c43)ncn2)sc1C(=O)O and say whether its IC50 is less than 400 nM.
met

Take the compound COc1cc(F)c(F)c2c1cc(C)n2CCNc1cc(-c2ccc3cc[nH]c3c2)ncn1 and say whether its IC50 is less than 400 nM.
met

Take the compound Cc1ccc(F)c2c1cc(C)n2CCNc1cc(-c2cc(F)c(C(=O)O)s2)ncn1 and say whether its IC50 is less than 400 nM.
met

Take the compound COc1ccc(F)c2c1cc(C)n2CCNc1cc(-c2ccc(S(N)(=O)=O)c(C)c2)ncn1 and say whether its IC50 is less than 400 nM.
met

Take the compound CCOc1cc(-c2cc(NCCn3c(C)cc4cc(F)c(Cl)c(Cl)c43)ncn2)sc1C(=O)O and say whether its IC50 is less than 400 nM.
not met

Take the compound Cc1cc(-c2cc(NCCn3c(C)cc4c(C)ccc(F)c43)ncn2)ccc1CO and say whether its IC50 is less than 400 nM.
met

Take the compound CCOc1cc(-c2cc(NCCn3c(C)cc4c(C)ccc(F)c43)ncn2)cc(C)c1C(=O)O and say whether its IC50 is less than 400 nM.
met

* * *

# Target Desc: PTGER2 (EP2) (Homo sapiens (Human))
# Protocol Text: hEP2 b-arrestin assay (PathHunter HEK 293 PTGER2 b-arrestin cells)
# Assay type: cell-based
# Details: hEP2 b-arrestin assay (values without asterisk)
Readout: pIC50
Bear in mind: pIC50 is minus log10 of a mol/L concentration; give just that figure.

Which value of pIC50 has been reported for CCOc1cc(-c2cc(NCCn3c(C#N)cc4c(Cl)cc(F)c(F)c43)ncn2)ccc1NCC(=O)O in the records?
7.70

Which value of pIC50 has been reported for COc1ccc(F)c2c1cc(C#N)n2CCNc1cc(-c2ccc(C(=O)O)c(OC(F)F)c2)ncn1 in the records?
7.62

Which value of pIC50 has been reported for N#Cc1c(F)c2ccccc2n1CCNc1cc(-c2cc(C(F)(F)F)c(C(=O)O)s2)ncn1 in the records?
7.32

Which value of pIC50 has been reported for CCOc1cc(-c2cc(NCCn3c(C)cc4c(OC)cc(F)cc43)ncn2)ccc1NCC(=O)O in the records?
7.96

* * *

# Target Desc: EP4 (Homo sapiens (Human), UniProt P35408)
# Sequence (P35408 whole entry): as the sequence (P35408 whole entry, looked up) above
# Protocol Text: hEP4 cAMP assay (BT549 breast cancer cells, HTRF cAMP)
# Type: cell-based
# Details: antagonistic activity; mean values where measured multiple times
Readout: IC50 (nM)
Write the answer as a number in nM, unit excluded.

Recorded IC50 for COc1cc(F)cc2c1cc(C)n2CCNc1cc(-c2ccc(C(=O)O)c(OC(F)(F)F)c2)ncn1 with EP4 (Homo sapiens (Human), UniProt P35408), please?
325

Recorded IC50 for Cc1cc2c(F)c(F)cc(F)c2n1CCNc1cc(-c2ccc(C(=O)O)c(CC(C)C)c2)ncn1 with EP4 (Homo sapiens (Human), UniProt P35408), please?
113

Recorded IC50 for COc1cc(F)cc2c1cc(C)n2CCNc1cc(-c2cc(Cl)c(C(=O)O)c(OCC(C)C)c2)ncn1 with EP4 (Homo sapiens (Human), UniProt P35408), please?
64

Recorded IC50 for COc1ccc(F)c2c1cc(C)n2CCNc1cc(-c2ccc(N3CCCS3(=O)=O)cc2)ncn1 with EP4 (Homo sapiens (Human), UniProt P35408), please?
667

Recorded IC50 for CCOc1cc(-c2cc(NCCn3c(C)cc4c(OC)c(Cl)cc(F)c43)ncn2)ccc1C(=O)O with EP4 (Homo sapiens (Human), UniProt P35408), please?
707

Recorded IC50 for COc1ccc(-c2ccc(-c3cc(NCCn4c(C)cc5c(OC)cc(F)cc54)ncn3)cc2)nn1 with EP4 (Homo sapiens (Human), UniProt P35408), please?
194

Recorded IC50 for CCCCOc1cc(-c2cc(NCCn3c(C)cc4c(OC)cc(F)cc43)ncn2)sc1C(=O)O with EP4 (Homo sapiens (Human), UniProt P35408), please?
3

* * *

Give measured IC50 for each item. Keep answers brief.
# Target Desc: EP4 (Homo sapiens (Human))
# Protocol Text: hEP4 cAMP assay (BT549 breast cancer cells, HTRF cAMP)
# Format: cell-based
# Details: antagonistic activity; mean values where measured multiple times
# Method: Plate is pre-incubated 45 minutes at room temperature. Subsequently, 2.5 microliters of PGE2 (final conc. 6 nM) are transferred into the assay plate. Plate is incubated 30 minutes at room temperature.
Write the answer as a number in nM, unit excluded.

Which value of IC50 has been reported for CCOc1cc(-c2cc(NCCn3c(C)cc4c(OC)ccc(F)c43)ncn2)cc(Cl)c1C(=O)O [compound 489] in the records?
103

Which value of IC50 has been reported for COc1ccc(Cl)c2c1cc(C)n2CCNc1cc(-c2ccc(C(=O)O)c(OC(F)(F)F)c2)ncn1 [compound 605] in the records?
829

Which value of IC50 has been reported for Cc1cc2ccccc2n1CCNc1cc(-c2ccc(-c3nnn[nH]3)s2)ncn1 [Example 792] in the records?
227

Which value of IC50 has been reported for Cc1cc(F)cc2c1cc(C)n2CCNc1cc(-c2ccc(-c3cnc(N)o3)cc2)ncn1 [compound 552] in the records?
118

Which value of IC50 has been reported for CCCc1cc(-c2cc(NCCn3c(C)cc4cc(F)cc(Cl)c43)ncn2)cc(Cl)c1C(=O)O [compound 426] in the records?
759

Which value of IC50 has been reported for COc1ccc(F)c2c1cc(C)n2CCNc1cc(-c2ccc(-c3nnn[nH]3)s2)ncn1 [Example 793] in the records?
18

Which value of IC50 has been reported for Cc1cc2c(F)cc(F)c(F)c2n1CCNc1cc(-c2ccc(C(=O)O)c(CC(C)C)c2)ncn1 [compound 505] in the records?
671

Which value of IC50 has been reported for CCCc1cc(-c2cc(NCCn3c(C)cc4c(OC)c(F)ccc43)ncn2)cc(F)c1C(=O)O [compound 520] in the records?
482

Which value of IC50 has been reported for Cc1ccc(F)c2c1cc(C)n2CCNc1cc(-c2ccc3c(c2)C(CC(C)C)NC3=O)ncn1 (racemic) [compound 468] in the records?
264

Which value of IC50 has been reported for CCOc1cc(-c2cc(NCCn3c(C)cc4c(C)ccc(F)c43)ncn2)cc(CC)c1C(=O)O [compound 532] in the records?
828

Which value of IC50 has been reported for Cc1ccc(F)c2c1cc(C)n2CCNc1cc(-c2ccc(-c3n[nH]cc3C(=O)O)cc2)ncn1 [compound 456] in the records?
944

Which value of IC50 has been reported for CCCCOc1cc(-c2cc(NCCn3c(C)cc4c(OC)ccc(F)c43)ncn2)ccc1C(=O)O [compound 615] in the records?
39

Which value of IC50 has been reported for COc1cc(-c2cc(NCCn3c(C)cc4ccccc43)ncn2)ccc1-c1nnn[nH]1 [Example 746] in the records?
869

Which value of IC50 has been reported for COc1cc(-c2cc(NCCn3c(C)cc4c(OC)ccc(Cl)c43)ncn2)ccc1-c1nnn[nH]1 [compound 684] in the records?
471

Which value of IC50 has been reported for CNS(=O)(=O)c1ccc(-c2cc(NCCn3c(C)cc4c(C)ccc(F)c43)ncn2)cc1C(F)(F)F [compound 563] in the records?
601

Which value of IC50 has been reported for COc1cc(F)c(F)c2c1cc(C)n2CCNc1cc(-c2cc(C(F)(F)F)c(C(=O)O)s2)ncn1 [compound 525] in the records?
14

* * *

# Target Desc: PTGER2 (EP2) (Homo sapiens (Human), UniProt P43116)
# Sequence (P43116 whole entry): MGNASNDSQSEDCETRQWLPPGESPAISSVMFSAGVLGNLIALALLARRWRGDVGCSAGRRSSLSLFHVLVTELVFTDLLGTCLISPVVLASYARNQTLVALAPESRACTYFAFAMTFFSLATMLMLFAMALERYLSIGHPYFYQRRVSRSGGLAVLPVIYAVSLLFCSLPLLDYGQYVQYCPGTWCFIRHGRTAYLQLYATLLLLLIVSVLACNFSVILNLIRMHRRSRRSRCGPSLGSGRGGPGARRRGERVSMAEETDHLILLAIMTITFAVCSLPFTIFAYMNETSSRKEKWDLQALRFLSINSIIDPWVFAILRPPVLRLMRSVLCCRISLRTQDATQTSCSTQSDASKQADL
# Protocol Text: hEP2 b-arrestin assay (PathHunter HEK 293 PTGER2 b-arrestin cells)
# Assay type: cell-based
# Details: antagonistic activity on hEP2; mean where measured multiple times
Readout: IC50 (nM)
Write the answer as a number in nM, unit excluded.

Which value of IC50 has been reported for CCc1cc(-c2cc(NCCn3c(C)cc4c(OC)ccc(Cl)c43)ncn2)cc(Cl)c1C(=O)O in the records?
89

Which value of IC50 has been reported for CNc1nnc(-c2ccc(-c3cc(NCCn4c(C)cc5ccccc54)ncn3)cc2)s1 in the records?
2

Which value of IC50 has been reported for COc1cccc2c1cc(C)n2CCNc1cc(-c2ccc(-c3cscn3)cc2)ncn1 in the records?
7

Which value of IC50 has been reported for Cc1cc(F)cc2c1cc(C)n2CCNc1cc(-c2cc(F)c(C(=O)O)s2)ncn1 in the records?
24

Which value of IC50 has been reported for COc1ccc(Cl)c2c1cc(C)n2CCNc1cc(-c2cc(C)c(C(=O)O)c(F)c2)ncn1 in the records?
65

Which value of IC50 has been reported for COc1ccc(F)c2c1cc(C)n2CCNc1cc(-c2ccc(C(=O)O)c3[nH]ccc23)ncn1 in the records?
18

Which value of IC50 has been reported for CSc1cc(-c2cc(NCCn3c(C)cc4c(C)c(F)cc(Cl)c43)ncn2)cc(F)c1C(=O)O in the records?
102

Which value of IC50 has been reported for Cc1ccc(F)c2c1cc(C)n2CCNc1cc(-c2ccc(-c3cc(N)no3)cc2)ncn1 in the records?
19

Attribution: patent US12011444B2
